# Test system: Candida parapsilosis
# Assay Summary: Determination of fungal susceptibility (MIC, microdilution in CYG medium)
# Format: cell-based
# Cond: single isolate, 2 days at 37° C., growth (OD 405 nm) inhibited to 35% of control or less
# Protocol: A panel single isolates of the dermatophytes Sporothrix schenckii; Microsporum canis; Trichophyton rubrum; Trichophyton mentagrophyte; Candida parapsilosis; Cryptococcus neoformans; and Aspergillus fumigatus were used to evaluate the activity of the test compounds in vitro. […] Growth in the microcultures was measured by their optical density (OD) measured at a wavelength of 405 nm. […] Inhibition of growth to 35% of control or less was recorded as significant inhibition. […]

Compound	MIC values, Candida parapsilosis
CC(C)c1ccc(C2NCc3c(F)cccc3-n3cccc32)cc1 (centres unmarked)	>10 10^−6 M
CCc1ccc(C2NCc3cc(Cl)ccc3-n3cccc32)cc1 (centres unmarked)	>10 10^−6 M
Br.CCc1ccc(C2NCc3ccc(Cl)cc3-n3cccc32)cc1 (centres unmarked)	>10 10^−6 M
Br.FC(F)(F)c1cccc(C2NCc3c(Cl)cccc3-n3cccc32)c1 (centres unmarked)	>10 10^−6 M
CCc1ccc(C2NCc3c(F)cccc3-n3cccc32)cc1 (centres unmarked)	10 10^−6 M

----------
# System: Trichophyton rubrum
# Assay Summary: Determination of fungal susceptibility (MIC, microdilution in CYG medium)
# Assay type: cell-based
# Cond: single isolate, 5 days at 30° C., growth (OD 405 nm) inhibited to 35% of control or less
Reported Endpoint: MIC values, Trichophyton rubrum

Molecule	Data Value
Br.CC(C)c1ccc(C2NCc3ccccc3-n3cccc32)cc1 (centres unmarked)	3.2 10^−6 M
Br.N#Cc1ccc(C2NCc3ccc(Cl)cc3-n3cccc32)cc1 (centres unmarked)	0.32 10^−6 M
CCc1ccc(C2=NCc3ccccc3-n3cccc32)cc1	0.03 10^−6 M
CCc1ccc(C2NCc3c(F)cccc3-n3cccc32)cc1 (centres unmarked)	0.32 10^−6 M
Br.COc1ccc(C2NCc3c(Cl)cccc3-n3cccc32)cc1 (centres unmarked)	2.1 10^−6 M

----------
# Tested on: Trichophyton rubrum
# Assay Summary: Determination of fungal susceptibility (MIC, microdilution in CYG medium)
# Format: cell-based
# Cond: single isolate, 5 days at 30° C., growth (OD 405 nm) inhibited to 35% of control or less
Recorded MIC values, Trichophyton rubrum, one value per entry.

Molecule	MIC values, Trichophyton rubrum
Br.CCc1ccc(C2NCc3ccccc3-n3cccc32)cc1 (stereo not drawn)	1 10^−6 M
Br.CCc1ccc(C2NCc3ccc(Cl)cc3-n3cccc32)cc1 (stereo not drawn)	0.1 10^−6 M
CCc1ccc(C2NCc3cc(Cl)ccc3-n3cccc32)cc1 (stereo not drawn)	3.2 10^−6 M
Br.Cc1ccc(C2NCc3ccc(Cl)cc3-n3cccc32)cc1 (stereo not drawn)	0.32 10^−6 M
Br.CCc1ccc(C2NCc3c(Cl)cccc3-n3cccc32)cc1 (stereo not drawn)	0.03 10^−6 M
Br.CCCCc1ccc(C2NCc3c(Cl)cccc3-n3cccc32)cc1 (stereo not drawn)	0.1 10^−6 M
Br.CCCc1ccc(C2NCc3c(Cl)cccc3-n3cccc32)cc1 (stereo not drawn)	0.1 10^−6 M
CC(C)c1ccc(C2NCc3c(F)cccc3-n3cccc32)cc1 (stereo not drawn)	0.32 10^−6 M
Br.CC(C)(C)c1ccc(C2NCc3c(Cl)cccc3-n3cccc32)cc1 (stereo not drawn)	0.1 10^−6 M
